Entries and their GI50
Test system: PC-3 prostate cancer cells
ASSAY_DETAILS: MTT assay of PC-3 prostate cancer cell growth (proliferation) inhibition
Format: cell-based, human
CONDITION_LABEL: Homo sapiens, 144 h, PC-3 cells, 6 days of treatment, read-out: GI50 Values (concentrations that cause 50% growth inhibition)
RESULT_TYPE: GI50 (nM)

> print(dat)
                                   compound             measured.target  assay.value
1  CC1=C(/C=C/C(C)=C/C=C/C(C)=C/C(=O)Nc2ccc(F)cc2)C(C)(C)CCC1n1ccnc1 (stereo not drawn) [drawing 39]  PC-3 prostate cancer cells          610
2  CC1=C(/C=C/C(C)=C/C=C/C(C)=C/C(=O)Nc2ncnc3[nH]cnc23)C(C)(C)CCC1n1ccnc1 (stereo not drawn)  PC-3 prostate cancer cells         5620
3  CC1=C(/C=C/C(C)=C/C=C/C(C)=C/C(=O)Nc2ccccc2O)C(C)(C)CCC1n1ccnc1 (stereo not drawn) [drawing 37]  PC-3 prostate cancer cells         1700
